System: SF-295
Assay: NCI tumour cell line growth inhibition, 48 h
Active and inactive are the calls of the source. Cut-off read from the data, not from the text of the source: active = GI50 up to about 1.1 µM and inactive = higher.
Write down one outcome, taken from Y for active, N for inactive

Answered examples (2):
FC(F)(F)c1ccc(C2=N/S(c3ccccc3)=N\C(c3ccc(C(F)(F)F)cc3)=N/S(c3ccccc3)=N\2)cc1 (stereo not given)    N
C/C(=N\NC(=S)NCCNC(=S)N/N=C(\C)c1ccccn1)c1ccccn1    N

Query: Could you kindly confirm the outcome this assay logged for Cc1c(-c2ccccc2)c(=O)oc2ccc(Cl)cc12 ?
Reply: N

Query: Could you kindly confirm the outcome this assay logged for CC(C)c1ccccc1NC(=O)CCc1n[nH]c(=S)o1 ?
Reply: N

Query: Could you kindly confirm the outcome this assay logged for Nc1nc2cc3nc(N)c(N)nc3cc2nc1N ?
Reply: N
